Reported IC50 values follow for various molecules
- TARGET_OF_ASSAY: Keap1 Kelch domain (321-609) / TAMRA-labeled 16mer NRF2 peptide (ETGE motif) (Homo sapiens)
- Construct: the Kelch domain (321-609) of Keap1 is used
- Sequence (Q14145 321-609): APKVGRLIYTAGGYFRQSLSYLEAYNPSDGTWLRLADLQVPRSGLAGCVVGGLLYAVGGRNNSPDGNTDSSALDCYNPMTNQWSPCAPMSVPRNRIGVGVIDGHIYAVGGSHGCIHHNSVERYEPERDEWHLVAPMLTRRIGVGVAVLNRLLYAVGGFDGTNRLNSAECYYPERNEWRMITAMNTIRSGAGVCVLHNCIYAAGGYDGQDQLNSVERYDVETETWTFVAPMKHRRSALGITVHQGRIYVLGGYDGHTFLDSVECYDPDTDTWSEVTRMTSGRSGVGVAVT
- TEST_NAME: NRF2-Keap1 FP Assay (Keap1 Kelch fluorescence polarization)
- SETTINGS: 20 nM Keap1 (321-609), 8 nM Tamra labeled peptide

Some solved cases for reference:
Cn1cc([C@@H]2C[C@H]2c2c(C(=O)O)cnn2-c2cccc(-c3cccc(S(=O)(=O)N4CCCCC4)c3)c2)nn1 (racemic)	0.01 to 0.1 µM
CN(CC1CC1)C(=O)c1cccc(-c2cccc(-n3ncc(C(=O)O)c3C(F)(F)F)c2)c1F	0.1 to 1 µM

Here is the next item to consider.
(Q) Item under review: CCC[C@@H]1CCCCN1C(=O)c1cccc(-c2cccc(-n3ncc(C(=O)O)c3[C@H]3C[C@@H]3c3cn(C(C)C)nn3)c2)c1 (racemic) . Reported IC50?
(A) 0.01 to 0.1 µM

----------
- TARGET_OF_ASSAY: full length Keap1 protein / full length NRF2 protein (Homo sapiens, UniProt Q14145)
- Construct: full length NRF2 protein and full length Keap1 protein (Keap1 exists a dimer) are used; His
- Sequence (Q14145 whole entry): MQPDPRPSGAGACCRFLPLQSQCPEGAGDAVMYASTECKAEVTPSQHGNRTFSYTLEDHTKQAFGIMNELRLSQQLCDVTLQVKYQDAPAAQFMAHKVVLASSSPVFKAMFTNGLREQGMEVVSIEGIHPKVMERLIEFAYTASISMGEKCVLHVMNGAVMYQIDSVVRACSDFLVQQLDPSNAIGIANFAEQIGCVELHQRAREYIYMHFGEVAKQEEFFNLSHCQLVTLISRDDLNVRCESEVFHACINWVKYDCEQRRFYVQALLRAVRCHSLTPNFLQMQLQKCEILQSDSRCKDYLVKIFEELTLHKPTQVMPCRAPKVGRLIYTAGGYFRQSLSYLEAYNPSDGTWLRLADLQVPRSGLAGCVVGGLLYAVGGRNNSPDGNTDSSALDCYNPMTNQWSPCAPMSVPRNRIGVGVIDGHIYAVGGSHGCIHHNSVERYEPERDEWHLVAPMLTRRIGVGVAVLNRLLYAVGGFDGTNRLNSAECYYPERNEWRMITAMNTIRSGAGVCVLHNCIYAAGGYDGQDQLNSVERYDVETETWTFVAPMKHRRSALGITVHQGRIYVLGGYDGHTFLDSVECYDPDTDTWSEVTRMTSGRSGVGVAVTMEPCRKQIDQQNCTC
- TEST_NAME: NRF2-Keap1 TR-FRET Low Protein Assay
- Type: binding
- SETTINGS: 1.25 nM Keap1 FlagHis and 2.5 nM biotin-NRF2 added
pIC50: −log10 of the molar value.
READOUT: pIC50

Example entries begin here.
CC(Oc1cccc(-c2cccc(-n3ncc(C(=O)O)c3C3CC3c3cn(C)nn3)c2)c1)C1CCCCC1 (stereo not shown) [Example 219]	7.00 to 8.00
Cc1c(OCC2CCCCC2)cccc1-c1cccc(-n2ncc(C(=O)O)c2[C@H]2C[C@@H]2c2cn(C)nn2)c1 (racemic) [Example 72]	6.00 to 7.00
C[C@@H]1Cc2ccccc2S(=O)(=O)N(Cc2cccc(-c3cccc(-n4ncc(C(=O)O)c4[C@@H]4C[C@H]4c4cn(C)nn4)c3)c2)C1 [Example 130]	7.00 to 8.00
Cn1cc([C@@H]2C[C@H]2c2c(C(=O)O)cnn2-c2cccc(-c3cccc(CN4Cc5ccccc5OC(C)(C)C4)c3)c2)nn1 (racemic) [Example 254]	7.00 to 8.00
O=C(O)c1cnn(-c2cccc(-c3cccc(-n4ncc5c4CCC5)c3)c2)c1C1CC1 [Example 61]	5.00 to 6.00
Cn1cc([C@@H]2C[C@H]2c2c(C(=O)O)cnn2-c2cccc(-c3cccc(OCC4CCCSC4)c3)c2)nn1 (mixture of isomers) [Example 144]	7.00 to 8.00

(Q) Need pIC50, item CCn1cc([C@H]2C[C@@H]2c2c(C(=O)O)cnn2-c2cccc(-c3cccc(OC(C)C4CCCCC4)c3)c2)nn1 (mixture of isomers) [Example 192]
(A) 7.00 to 8.00

----------
- Tested on: NQO1 specific enzyme activity in BEAS-2B cells (marker for NRF2 activation)
- TEST_NAME: BEAS-2B NQO1 MTT Assay
- Assay type: cell-based
- SETTINGS: Homo sapiens, BEAS-2B, 48 h, compound incubated 48 hours, read-out: EC50 (NQO1 specific enzyme activity induction)
Counter-ions that a name gives are not always drawn.
In this section, each of the compounds is paired with its reported EC50.

(Q) Would you mind telling me what EC50 value was observed for CCC[C@@H]1CCCCN1C(=O)c1cccc(-c2cccc(-n3nc(C)c(C(=O)O)c3C3CC3c3cn(C)nn3)c2)c1 (some centres unmarked) [Example 202] ?
(A) 100 to 1000 nM

(Q) Any idea what its EC50 is? The compound is O=C(O)c1cnn(-c2cccc(-c3cccc(-n4ncc5c4CCCC5)c3)c2)c1C1CC1 [Example 62]
(A) 100 to 1000 nM

(Q) May I ask what EC50 has been recorded for CCCC1CCCCN1C(=O)c1cccc(-c2cccc(-n3ncc(C(=O)O)c3C3CC3c3cn(C)nn3)c2)c1 (centres unmarked) [Example 42] ?
(A) 100 to 1000 nM

(Q) Quick check: EC50 of C[C@H](Oc1cccc(-c2cccc(-n3ncc(C(=O)O)c3[C@@H]3C[C@H]3c3cn(C)nn3)c2)c1)C1CCCCC1 [Example 68, Sodium salt] ?
(A) 1 to 10 nM

(Q) Recorded EC50 for CCC[C@@H]1CCCCN1C(=O)c1cccc(-c2cccc(-n3ncc(C(=O)O)c3C3CC3c3cnoc3C)c2)c1 (some centres unmarked) [Example 159] , please?
(A) 100 to 1000 nM

----------
- TARGET_OF_ASSAY: full length Keap1 protein / full length NRF2 protein (Homo sapiens, UniProt Q14145)
- Construct: full length NRF2 protein and full length Keap1 protein (Keap1 exists a dimer) are used; His
- TEST_NAME: NRF2-Keap1 TR-FRET Assay
- Assay type: binding
- SETTINGS: 25 nM Keap1-FlagHis and 50 nM biotin-NRF2 added
pIC50: −log10 of the molar value.
Property: pIC50; scope: individual compounds

Would you please look over these solved cases?
Cn1cc(CCCCOc2cccc(-c3cccc(-n4ncc(C(=O)O)c4C4CC4)c3)c2)nn1	4.00 to 5.00
CCCC1CCCCN1C(=O)c1cccc(-c2cccc(-n3ncc(C(=O)O)c3C3CC3c3cn(C)nn3)c2)c1 (stereo not drawn)	7.00 to 8.00
CCCC1CCCCN1C(=O)c1cccc(-c2cccc(-n3ncc(C(=O)O)c3C3CC3c3cccnc3)c2)c1 (stereo not drawn)	5.00 to 6.00

(Q) May I ask what pIC50 has been recorded for Cn1cc([C@@H]2C[C@H]2c2c(C(=O)O)cnn2-c2cccc(-c3cccc(CN4CCOCC4)c3)c2)nn1 (racemic) ?
(A) 6.00 to 7.00

(Q) Name the reported pIC50 value associated with the compound Cn1cc([C@H]2C[C@@H]2c2c(C(=O)O)cnn2-c2cccc(-c3cccc(OCC(C)(C)C)c3)c2)nn1 (racemic)
(A) 6.00 to 7.00

(Q) Report pIC50 for "CN(C)C(=O)c1cccc(-c2cccc(-n3ncc(C(=O)O)c3C(F)(F)F)c2)c1F" please.
(A) 5.00 to 6.00

(Q) Item CCCC1CCCCN1C(=O)c1cccc(-c2cccc(-n3ncc(C(=O)O)c3C3CC3)c2)c1F (stereo not drawn) [Example 17] has what recorded pIC50?
(A) 6.00 to 7.00

(Q) Please look up its pIC50: Cn1cc([C@@H]2C[C@H]2c2c(C(=O)O)cnn2-c2cccc(-c3cccc(OCCC4CCCCC4)c3)c2)nn1 (racemic)
(A) 6.00 to 7.00

(Q) Query: pIC50; subject: "CC(C)Oc1cccc(-c2cccc(-n3ncc(C(=O)O)c3C(F)(F)F)c2)c1"
(A) 4.00 to 5.00

(Q) Field request: pIC50 | item: Cn1cc(C2CC2c2c(C(=O)O)cnn2-c2cccc(-c3cccc(OCC4CCOCC4)c3)c2)nn1 (stereo not drawn)
(A) 6.00 to 7.00

(Q) GET /values?readout=pIC50&item= CCC[C@@H]1CCCCN1C(=O)c1cc(F)cc(-c2cccc(-n3ncc(C(=O)O)c3C3CC3c3cn(C)nn3)c2)c1 (stereo partly drawn)
(A) 7.00 to 8.00

(Q) Param item = "CC(C)CN(C)C(=O)c1cccc(-c2cccc(-n3ncc(C(=O)O)c3C3CC3)c2)c1F" ; retrieve measured pIC50.
(A) 5.00 to 6.00

----------
- TARGET_OF_ASSAY: full length Keap1 protein / full length NRF2 protein (Homo sapiens)
- Construct: full length NRF2 protein and full length Keap1 protein (Keap1 exists a dimer) are used; His
- TEST_NAME: NRF2-Keap1 TR-FRET Low Protein Assay
- Format: binding
- SETTINGS: 1.25 nM Keap1 FlagHis and 2.5 nM biotin-NRF2 added
pIC50: −log10 of the molar value.
Listed next: entries and their corresponding pIC50.

CCC1c2ccccc2OCCN1Cc1cccc(-c2cccc(-n3ncc(C(=O)O)c3[C@H]3C[C@@H]3c3cn(C)nn3)c2)c1 (mixture of isomers) [Example 123]	7.00 to 8.00
Cn1cc(C2CC2c2c(C(=O)O)cnn2-c2cccc(-c3cccc(OCCC4CCCCC4)c3)c2)nn1 (centres unmarked) [Example 170]	7.00 to 8.00
C[C@H](Oc1cccc(-c2cccc(-n3ncc(C(=O)OCCO)c3[C@@H]3C[C@H]3c3cn(C)nn3)c2)c1)C1CCCCC1 [Example 107]	5.00 to 6.00
C[C@H](Oc1cccc(-c2cccc(-n3ncc(C(=O)O)c3[C@@H]3C[C@H]3c3cn(CCO)nn3)c2)c1)C1CCCCC1 (racemic) [Example 90]	> 8.00
COC(c1cccc(-c2cccc(-n3ncc(C(=O)O)c3C3CC3c3cn(C)nn3)c2)c1)C1CCCC1 (centres unmarked) [Example 183]	7.00 to 8.00
CC[C@@H]1CN(Cc2cccc(-c3cccc(-n4ncc(C(=O)O)c4C4CC4c4cn(C)nn4)c3)c2)Cc2ccccc2O1 (some centres unmarked) [Example 129]	> 8.00
C[C@H](Oc1cccc(-c2cccc(-n3ncc(C(=O)O)c3[C@@H]3C[C@H]3c3cn(C)nn3)c2)c1)C1CCCCC1 [Example 70]	> 8.00
C[C@H]1Cc2ccccc2S(=O)(=O)N(Cc2cccc(-c3cccc(-n4ncc(C(=O)O)c4[C@H]4C[C@@H]4c4cn(C)nn4)c3)c2)C1 [Example 133]	7.00 to 8.00

(Q) Given the entry CCCCC1CCc2cnn(-c3cccc(-c4cccc(-n5ncc(C(=O)O)c5C5CC5)c4)c3)c21 (centres unmarked) [Example 206] , report its measured pIC50.
(A) 6.00 to 7.00

(Q) Item CCC[C@@H]1CO[C@@H](C)CN1C(=O)c1cccc(-c2cccc(-n3ncc(C(=O)O)c3C3CC3)c2)c1F [Example 45] has what recorded pIC50?
(A) 7.00 to 8.00

(Q) pIC50 lookup needed for C[C@H](Oc1cccc(-c2cccc(-n3ncc(C(=O)OCOC(=O)c4ccccc4)c3[C@@H]3C[C@H]3c3cn(C)nn3)c2)c1)C1CCCCC1 [Example 111] , thanks.
(A) 6.00 to 7.00

(Q) For the molecule CCC[C@@H]1CCCCN1C(=O)c1cccc(-c2cccc(-n3nc(C)c(C(=O)O)c3C3CC3c3cn(C)nn3)c2)c1 (some centres unmarked) [Example 202] , what pIC50 is on record?
(A) > 8.00
